Each recorded value in this set is attributed to patent US20060153834A1.

- assay target: Human IgG (HIgG) (human)
- measurement notes: batch adsorption isotherm, PBS pH 7.4, Ac-HWRGWV resin at 0.080 mmol/g, Langmuir fit
pKd: −log10 of the molar value.

# binder, pKd
data = [
    ("Ac-HWRGWVA-{Toyopearl AF‑Amino‑650 resin} [Ac-HWRGWV]", 5.42),
]
